target: HA-1 “H” peptide (…) presented by HLA-A*02:01 on antigen presenting cells (human); assay: cell-based or functional assay
measure: EC50 values for CD69 Expression (µg/mL)
Provide the reading as a plain figure in µg/mL.

Enquiry: Entry under review: TCR AB (TCR, V domains shown) V domain 1: AQSVAQPEDQVNVAEGNPLTVKCTYSVSGNPYLFWYVQYPNRGLQFLLKYITGDNLVKGSYGFEAEFNKSQTSFHLKKPSALVSDSALYFCAVRVPTGGYQKVTFGIGTKLQVIP V domain 2: DTGVSQNPRHKITKRGQNVTFRCDPISEHNRLYWYRQTLGQGPEFLTYFQNEAQLEKSRLLSDRFSAERPKGSFSTLEIQRTEQGDSAMYLCASKLTDTQYFGPGTRLTVLE . Reported EC50 values for CD69 Expression?
Return: 0.0402

Enquiry: Would you mind telling me what EC50 values for CD69 Expression value was observed for TCR X (TCR, V domains shown) V domain 1: GENVEQHPSTLSVQEGDSAVIKCTYSDSASNYFPWYKQELGKRPQLIIDIRSNVGEKKDQRIAVTLNKTAKHFSLHITETQPEDSAVYFCVVLGGAGNMLTFGGGTRLMVKP V domain 2: DTGVSQDPRHKITKRGQNVTFRCDPISEHNRLYWYRQTLGQGPEFLTYFQNEAQLEKSRLLSDRFSAERPKGSFSTLEIQRTEQGDSAMYLCASSLTVSDGYTFGSGTRLTVVE ?
Return: 0.0236

Enquiry: Given the binder TCR AC (TCR, V domains shown) V domain 1: SQQGEEDPQALSIQEGENATMNCSYKTSINNLQWYRQNSGRGLVHLILIRSNEREKHSGRLRVTLDTSKKSSSLLITASRAADTASYFCAKNDMRFGAGTRLTVKP V domain 2: DTGVSQNPRHKITKRGQNVTFRCDPISEHNRLYWYRQTLGQGPEFLTYFQNEAQLEKSRLLSDRFSAERPKGSFSTLEIQRTEQGDSAMYLCASSLLVGETQYFGPGTRLLVLE , what is its reported EC50 values for CD69 Expression?
Return: 0.0009
